- target_under_test: human pIgR, full-length, on cells (human, UniProt P01833 19-764)
- Sequence (P01833 19-764): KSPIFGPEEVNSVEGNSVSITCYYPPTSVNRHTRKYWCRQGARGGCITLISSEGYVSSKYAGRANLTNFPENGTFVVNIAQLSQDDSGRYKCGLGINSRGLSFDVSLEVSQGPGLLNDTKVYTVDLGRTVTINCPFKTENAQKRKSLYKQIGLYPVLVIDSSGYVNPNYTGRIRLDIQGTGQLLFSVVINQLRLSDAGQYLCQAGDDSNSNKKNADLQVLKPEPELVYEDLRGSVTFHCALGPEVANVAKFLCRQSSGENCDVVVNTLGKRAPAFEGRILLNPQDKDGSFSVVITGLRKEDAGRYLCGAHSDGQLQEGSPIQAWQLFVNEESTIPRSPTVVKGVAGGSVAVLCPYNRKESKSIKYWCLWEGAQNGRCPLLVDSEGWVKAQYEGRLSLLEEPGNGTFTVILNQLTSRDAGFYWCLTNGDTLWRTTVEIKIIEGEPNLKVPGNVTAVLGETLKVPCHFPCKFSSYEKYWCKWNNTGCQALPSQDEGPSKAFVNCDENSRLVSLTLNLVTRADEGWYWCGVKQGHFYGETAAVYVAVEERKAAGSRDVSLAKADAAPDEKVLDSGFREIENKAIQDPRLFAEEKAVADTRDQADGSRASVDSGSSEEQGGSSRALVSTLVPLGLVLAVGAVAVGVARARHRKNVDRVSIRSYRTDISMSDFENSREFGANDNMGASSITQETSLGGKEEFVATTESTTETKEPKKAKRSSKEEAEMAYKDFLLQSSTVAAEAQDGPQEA
- method_notes: cell-based or functional assay
Could you please report measured Rev. Trans (Fold Incr.) for the items listed next?
Answer format: value, then unit.

Exercise: Give a short answer stating reported Rev. Trans (Fold Incr.) for VHH12-linker-mono-Fc protein (Fc fusion, made in CHO cells; also called VHH12-mono-Fc; hpIgR_266) QVQLVETGGGLVQAGDSLRLSCAASGRTLSFNTYAMGWFRQAPGKEREFVASITWNGGSTSYADSVKGRFTITRDNAKNTATLRMNSLQPDDTAVYYCAAARYYVSGTYFPANYWGQGTQVTVSSEPKTPKPQPQPQLQPQPNPTTESKSPKSPAPELLGGPSVFLFPPKPKDTLMISRTPEVTCVVVDVSHEDPEVKFNWYVDGVEVHNAKTKPREEQYNSTYRVVSVLTVLHQDWLNGKEYKCKVSNKALPAPIEKTISKAKGQPREPQVYTKPPSREEMTKNQVSLSCLVKGFYPSDIAVEWESNGQPENNYKTTVPVLDSDGSFRLASYLTVDKSRWQQGNVFSCSVMHEALHNHYTQKSLSLSPGK .
Key: 11.7 fold

Next up:
Exercise: Indicate the recorded Rev. Trans (Fold Incr.) value for this binder: VHH3-linker-mono-Fc protein (Fc fusion, made in CHO cells; also called VHH3-mono-Fc; hpIgR_021) QLQLVESGGGLVQPGGSLRLSCAASGSIFSINVMGWYRQAPGKQRELVARINGGGITHYAESVKGRFTISRDNAKNTVYLQMNSLKPEDTAAYYCKADVFGSSGYVETYWGQGTQVTVSSEPKTPKPQPQPQLQPQPNPTTESKSPKSPAPELLGGPSVFLFPPKPKDTLMISRTPEVTCVVVDVSHEDPEVKFNWYVDGVEVHNAKTKPREEQYNSTYRVVSVLTVLHQDWLNGKEYKCKVSNKALPAPIEKTISKAKGQPREPQVYTKPPSREEMTKNQVSLSCLVKGFYPSDIAVEWESNGQPENNYKTTVPVLDSDGSFRLASYLTVDKSRWQQGNVFSCSVMHEALHNHYTQKSLSLSPGK
Key: 1 fold
